# study system: T1, VEGFR-2-Fc (UniProt P35968 20-322)
# T1 construct: domain: first 3 Ig domains; conditioned supernatant of 293T cells; also called VEGFR-2-Fc fusion protein; not shown: Fc fragment of the pIg vector
# T1 sequence (P35968 20-322): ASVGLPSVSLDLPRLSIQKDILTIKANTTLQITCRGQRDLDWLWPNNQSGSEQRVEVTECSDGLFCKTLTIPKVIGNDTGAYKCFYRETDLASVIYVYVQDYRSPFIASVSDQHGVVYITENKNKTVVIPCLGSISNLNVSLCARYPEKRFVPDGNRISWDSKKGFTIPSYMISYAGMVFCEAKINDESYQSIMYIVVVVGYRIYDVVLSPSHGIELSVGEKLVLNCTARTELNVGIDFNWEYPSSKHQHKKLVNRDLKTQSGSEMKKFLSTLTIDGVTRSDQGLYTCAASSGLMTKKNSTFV
# procedure summary: receptor-Fc IP
endpoint label: binding result

# count of solved cases: 4
53-7 (ligand) AHYNTEILKSIDNEWRKTQCMPIETLVDIFQEYPDEIEYIFKPPCVSVYRCGGCCNSEGLQCVPTEESNITMQIMRIKPHQGQHIGEMSFANHTSCRCMSKLD
binds
51-9 (ligand) AHYNTEILKSIDNEWRKTQCMPIETLVDIFQEYPDEIEYIFKPSCVPLMRCGGCCNDEGLECVPTEESNITMQIMRITVPLSQGPKPVTISFLQHNKCECRPKKD
no binding
44-8 (ligand) AHYNTEILKFMDVYQRSYCHPREVCIDVGKEFGVATNTFFKPSCVPLMRCGGCCNSEGLQCMNTSTSYLSKTLFEIKPHQGQHIGEMSFANHTSCRCMSKLD
no binding
74-16 (ligand) GQNHHEVVKSIDNEWRKTQCMPREVCIDVGKEFGVATNTFFKPSCVPLMRCGGCCNSEGLQCMNTSTSYLSKTLFEITVPLSQGPKPVTISFANHTSCRCMSKLD
no binding

Then this binder:
stdin: Data request, read-out binding result, for 11-13 (ligand) GQNHHEVVKFMDVYQRSYCHPIETLVDIFQEYPDEIEYIFKPSCVPLMRCGGCCNDEGLECVPTEESNITMQIMRITVPLSQGPKPVTISFANHTSCRCMSKLD
stdout: no binding

Data provenance is patent US20080058263A1.
